Numbers sourced from patent EP0094833A2.

- Tested on: ileum
- measurement-protocol: Inhibitory effect on contractile response induced by acetylcholine (Anti-ACh), isolated ileum
- Type: cell-based, guinea pig
- protocol-conditions: Cavia porcellus; guinea pig ileum, acetylcholine 2 X 10^-8 g/ml, test compound applied 2 minutes before; read-out: Anti-ACh (IC50 : g/ml)
endpoint-name: log10 IC50 (log10 of the value in µg/mL)

>>> print(df.to_string())
                                   compound  endpoint_name  number
0  Br.CCN(CC)CCCOC(=O)C(c1noc2ccccc12)C1CCCCC1 (stereo not drawn) [Example 1]     log10 IC50   -0.80
1  CCN(CC)CCOC(=O)C(c1noc2ccccc12)C1CCCCC1 (stereo not drawn) [Example 3]     log10 IC50   -0.92
2  CC[N+](C)(CC)CCOC(=O)C(c1noc2ccccc12)C1CCCCC1 (racemic) [Example 34]     log10 IC50   -1.59
3  CN1CCC(OC(=O)C(c2noc3ccccc23)C2CCCCC2)CC1 (stereo not drawn) [Example 5]     log10 IC50   -1.43
4  O=C(OCCN1CCCC1)C(Cc1ccccc1)(Cc1ccccc1)c1noc2ccccc12 [Example 29]     log10 IC50   -0.02
5  CC[N+]1(C)CCC(OC(=O)C(c2noc3ccccc23)C2CCCCC2)CC1.[Br-] (stereo not drawn) [Example 31]     log10 IC50   -1.85
6  CCCC[N+]1(C)C2CC(OC(=O)C(CO)c3ccccc3)CC1C1OC12 (stereo not drawn) [Scopolamine-N-butyl bromide, reference compound]     log10 IC50   -1.05
7  C[N+]1(C)CCC(OC(=O)C(c2noc3ccc(Cl)cc23)C2CCCCC2)CC1 (racemic) [Example 35]     log10 IC50   -1.24
8  C[N+]1(C)CCC(OC(=O)C(c2noc3ccccc23)C2CCCCC2)CC1 (stereo not drawn) [Example 33]     log10 IC50   -1.89

* * *

- System: ileum
- measurement-protocol: Inhibitory effect on contractile response induced by acetylcholine (Anti-ACh), isolated ileum
- Format: cell-based, guinea pig
- protocol-conditions: Cavia porcellus; guinea pig ileum, acetylcholine 2 X 10^-8 g/ml, test compound applied 2 minutes before; read-out: Anti-ACh (IC50 : g/ml)
endpoint-name: IC50 (µg/mL)

>>> df
                                   compound  measured_on  number
0  CN1CCC(OC(=O)C(Cc2ccccc2)(Cc2ccccc2)c2noc3ccccc23)CC1        ileum    0.65
1  CCN(CC)CCCC(C)OC(=O)C(c1noc2ccccc12)C1CCCCC1 (stereo not shown)        ileum    0.69
2  CCN(CC)CC(C)OC(=O)C1CCCCC1(O)C1CCCCC1 (stereo not shown) [Rociverine, reference compound]        ileum     1.1
3  CC[N+](C)(CC)CCCOC(=O)C(c1noc2ccccc12)C1CCCCC1 (stereo not shown)        ileum    0.21
4  O=C(OCCN1CCCCC1)C(c1noc2ccccc12)C1CCCCC1 (stereo not shown)        ileum    0.41
5  CCN(CC)CCCCOC(=O)C(c1noc2ccccc12)C1CCCCC1 (stereo not shown)        ileum    0.48
6  CCN(CC)CC(C)OC(=O)C(c1noc2ccccc12)C1CCCCC1 (stereo not shown)        ileum    0.42
